The measurements presented in this section are drawn from the supplement of paper PMC4466140.

# tested_on: ScAbp1
# assay_details: SPOT peptide array binding signal intensity (averaged, normalized) (arbitrary units (background-subtracted, floor 0; scale differs between SH3 domains)); higher = stronger binding of the SH3 domain to the peptide
Each entry below carries its reported SPOT peptide array binding signal intensity.
Keep it simple and answer with nothing but the number.

Solved cases (3 shown):
Query string: GET /values?readout=SPOT peptide array binding signal intensity&item= NNNKMRPHLPPLSSG
Result string: 256

Query string: Please do the same for IHTRRPSSTSQYLIR as well.
Result string: 97.5

Query string: Please do the same for FIRKRAPTPPAPSRS as well.
Result string: 256

***
Query string: GET /values?readout=SPOT peptide array binding signal intensity&item= KTRLRPAFIQQLWSS
Result string: 17

Query string: Please do the same for PPIPNAPLSPAPAVP as well.
Result string: 0.5

Query string: Please do the same for VATSTSPKLPPRGKQ as well.
Result string: 21.5

Query string: Please do the same for DRIRMFIRFPKFLLE as well.
Result string: 52.5

Query string: Please do the same for MARRRLPDRPPNGIG as well.
Result string: 135

Query string: Please do the same for KRNRLKILLPFLEQS as well.
Result string: 54

Query string: Please do the same for VLRFLGFPLPIFEKG as well.
Result string: 1.5
